Measured Sexp., therm., pH 7.4 of individual entries
Test: Thermodynamic solubility, shake-flask method with HPLC quantification
Format: physicochemical
Details: phosphate buffer pH 7.4, 25 °C
Procedure: For solubility assays an aqueous phosphate buffer pH 7.4 was used. The buffer was prepared by dissolving Na2HPO4 × 2 H2O (298 mg), KH2PO4 (19 mg) and NaCl (800 mg) in water (100 mL). The pH was adjusted to 7.4 by addition of hydrochloric acid. The thermodynamic solubility was determined using a shake-flask method with quantification by a HPLC method. […] The concentrations in the resulting saturated solutions were quantified by isocratic HPLC using calibration with external standard. […]
Marks after values point to notes of the source that are not given here.

>>> print(df.to_string())
                                   compound          endpoint_name               result
0        N#Cc1c(-c2ccccc2)[nH]c2c(Cl)cccc12  Sexp., therm., pH 7.4              <0.5 µM
1                    N#Cc1c[nH]c2c(I)cccc12  Sexp., therm., pH 7.4  45.2 (44.8–45.6) µM
2  O=C(O)c1nc2ccccc2c2[nH]c3c(I)cccc3c12 [KuFal194 (5), reference compound]  Sexp., therm., pH 7.4             < 0.5 µM

I am curious: what Sexp., therm., pH 7.4 value has been reported for `N#Cc1c(C2CCCC2)[nH]c2c(I)cccc12` ?
<0.5 µM

I am curious: what Sexp., therm., pH 7.4 value has been reported for `N#Cc1c(-c2ccccc2)[nH]c2c(I)cccc12` ?
<0.5 µM

I am curious: what Sexp., therm., pH 7.4 value has been reported for Cn1c(-c2ccccc2)c(C#N)c2cccc(I)c21 [Compound 13f] ?
<0.5 µM

I am curious: what Sexp., therm., pH 7.4 value has been reported for N#Cc1c(CC(O)CO)[nH]c2c(Cl)cccc12 (centres unmarked) ?
3447 ± 182 ^c µM

I am curious: what Sexp., therm., pH 7.4 value has been reported for `N#Cc1c(C2CC2)[nH]c2c(I)cccc12` ?
<0.5 µM

I am curious: what Sexp., therm., pH 7.4 value has been reported for `N#Cc1c(-c2ccccc2)[nH]c2c(Br)cccc12` ?
<0.5 µM

I am curious: what Sexp., therm., pH 7.4 value has been reported for `N#Cc1c[nH]c2c(Cl)cccc12` ?
143 ± 6.3^c µM

I am curious: what Sexp., therm., pH 7.4 value has been reported for `N#Cc1c[nH]c2c(Br)cccc12` ?
136 ± 11 µM
